Parameter growth: see the listing below.
Tested on: MDA-MB-231 breast
Method Notes: NCI-60 one-dose screen, 48 h (100 = growth as untreated, 0 = no growth, -100 = all killed)
Condition Summary: 10 µM unless noted
Compounds without any hit were thinned out: in the full panel of roughly 83,000, 20% have a hit. *1 amine or outer side, *2 acyl side, *3 side chain or, on linkers, in order; H or OH if unused. Where a SMILES comes first, the peptide text is derived from it. [ ]: non-standard residue; d: D form. The star is where a group is joined. X5 = CCC(=O)CC1CC(C)CC(C(=O)[*:2])N1[*:1]; X4 = CCCCCCCCC(C)C(=O)*; Aib = CC(C)(N)C(=O)O; X6 = CC(CN(C)CCO)N*

- Compound: "S=c1[nH]c2cc(Cl)ccc2s1"
  Reading Unit: "%"
  growth: 99.9
- Compound: "CC1C(c2ccccc2)OCCN1C(=S)Nc1ccc(S(=O)(=O)N2CCCCC2)cc1 (centres undefined)"
  Reading Unit: "%"
  growth: 86
- Compound: "COC(=O)c1cc([N+](=O)[O-])cc([N+](=O)[O-])c1Cl"
  Reading Unit: "%"
  growth: 105
- Compound: "O=C(O)c1cc2c(s1)C(=O)c1sccc1C2=O"
  Reading Unit: "%"
  growth: 75
- Compound: "NC(CS/C(Cl)=C/Cl)C(=O)O (centres undefined)"
  Reading Unit: "%"
  growth: 88.1
- Compound: "O=[N+]([O-])c1ccc(C(Br)c2ccc([N+](=O)[O-])cc2)cc1"
  Reading Unit: "%"
  growth: 93.8
- Compound: "O=C(c1ccccc1)C(Br)[N+](=O)[O-] (centres undefined)"
  Reading Unit: "%"
  growth: 93.2
- Compound: "CCCCCCCCC(C)C(=O)N1CCCC1C(=O)N1C(CC(=O)CC)CC(C)CC1C(=O)NC(C)C(=O)NC(C)(C)C(=O)NC(C)(C)C(=O)NC(C(=O)NC(C)C(=O)NC(C)(C)C(=O)NC(C)(C)C(=O)NC(C)CN(C)CCO)C(C)CC (centres undefined) (X4-P[X5]A[Aib][Aib]IA[Aib][Aib]-X6; configuration not given here)"
  Reading Unit: "%"
  growth: -94.1
- Compound: "Cc1cc(C)c([I+]c2c(C)cc(C)cc2C)c(C)c1"
  Reading Unit: "%"
  growth: -55.1
